Measured Ki (UniProt:P48736)
Sequence (P48736 whole entry): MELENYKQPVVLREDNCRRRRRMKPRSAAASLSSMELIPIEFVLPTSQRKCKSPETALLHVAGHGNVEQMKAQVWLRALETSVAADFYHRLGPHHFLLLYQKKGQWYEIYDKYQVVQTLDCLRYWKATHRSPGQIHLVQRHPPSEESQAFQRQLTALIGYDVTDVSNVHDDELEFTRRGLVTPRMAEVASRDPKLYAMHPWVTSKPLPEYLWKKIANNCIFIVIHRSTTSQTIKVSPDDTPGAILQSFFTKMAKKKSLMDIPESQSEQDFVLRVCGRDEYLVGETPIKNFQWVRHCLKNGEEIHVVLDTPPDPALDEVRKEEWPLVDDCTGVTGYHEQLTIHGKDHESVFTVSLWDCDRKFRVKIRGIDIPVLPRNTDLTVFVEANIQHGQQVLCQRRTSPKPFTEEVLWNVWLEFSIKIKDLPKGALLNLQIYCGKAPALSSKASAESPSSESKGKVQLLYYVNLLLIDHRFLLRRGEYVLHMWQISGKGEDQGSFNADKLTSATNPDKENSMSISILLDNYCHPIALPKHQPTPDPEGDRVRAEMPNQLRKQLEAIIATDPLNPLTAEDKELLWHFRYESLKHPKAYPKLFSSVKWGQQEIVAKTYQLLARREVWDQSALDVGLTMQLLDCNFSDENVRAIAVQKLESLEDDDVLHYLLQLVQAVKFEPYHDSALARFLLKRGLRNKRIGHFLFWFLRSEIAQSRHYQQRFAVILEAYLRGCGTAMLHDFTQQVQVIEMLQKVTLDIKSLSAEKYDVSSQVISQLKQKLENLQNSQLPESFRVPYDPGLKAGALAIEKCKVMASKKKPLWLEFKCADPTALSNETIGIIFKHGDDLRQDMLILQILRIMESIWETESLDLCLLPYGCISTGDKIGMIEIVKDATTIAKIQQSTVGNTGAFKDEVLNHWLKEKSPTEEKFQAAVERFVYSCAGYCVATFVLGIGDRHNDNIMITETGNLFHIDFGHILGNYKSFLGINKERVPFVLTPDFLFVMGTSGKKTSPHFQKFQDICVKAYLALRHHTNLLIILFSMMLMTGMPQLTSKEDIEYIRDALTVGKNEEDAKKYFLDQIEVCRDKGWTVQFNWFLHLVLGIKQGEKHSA

COMPOUND	Ki
[O-][S+]1CC2CC1CN2Cc1cnc2oc3c(N4CCOCC4)nc(-c4cccc5[nH]ccc45)nc3c2c1 (stereo not drawn)	1 to 10 µM
[O-][S+]1CCN(Cc2cnc3oc4c(N5CCOCC5)nc(-c5cc(Cl)cc6[nH]ccc56)nc4c3c2)CC1	> 10 µM
C[C@H](c1cnc2oc3c(N4CCOCC4)nc(-c4cccc5[nH]ccc45)nc3c2c1)N1CCS(=O)(=O)CC1	1 to 10 µM
O=S1(=O)C[C@@H]2C[C@H]1CN2Cc1cnc2oc3c(N4CCOCC4)nc(-c4cccc5[nH]ccc45)nc3c2c1	> 10 µM
C[C@@H](c1cnc2oc3c(N4CCOCC4)nc(-c4cccc5[nH]ccc45)nc3c2c1)N1CCS(=O)(=O)CC1	> 10 µM
[O-][S+]1CCN(Cc2cnc3oc4c(N5CCOCC5)nc(-c5c(Cl)ccc6[nH]ccc56)nc4c3c2)CC1	> 10 µM
[O-][S+]1CCN(Cc2cnc3oc4c(N5CCOCC5)nc(-c5cc(C(F)(F)F)cc6[nH]ccc56)nc4c3c2)CC1	> 10 µM
[O-][S+]1CCN(Cc2cnc3oc4c(N5CCOCC5)nc(-c5cccc6c5CCN6)nc4c3c2)CC1	> 10 µM
c1cc(-c2nc(N3CCOCC3)c3oc4ncc(CN5C[C@@H]6C[C@H]5CS6)cc4c3n2)c2cc[nH]c2c1	> 10 µM
CC(C)Oc1ccc2[nH]ccc2c1-c1nc(N2CCOCC2)c2oc3ncc(CN4CC[S+]([O-])CC4)cc3c2n1	1 to 10 µM
N#Cc1cc(-c2nc(N3CCOCC3)c3oc4ncc(CN5CC[S+]([O-])CC5)cc4c3n2)c2cc[nH]c2c1	> 10 µM
Cc1c[nH]c2cccc(-c3nc(N4CCOCC4)c4oc5ncc(CN6CC[S+]([O-])CC6)cc5c4n3)c12	> 10 µM
O=S1(=O)CCN(Cc2cnc3oc4c(N5CCOCC5)nc(-c5cccc6[nH]ccc56)nc4c3c2)CC1	> 10 µM
N#Cc1c[nH]c2cccc(-c3nc(N4CCOCC4)c4oc5ncc(CN6CC[S+]([O-])CC6)cc5c4n3)c12	> 10 µM
[O-][S+]1CCN(Cc2cnc3oc4c(N5CCOCC5)nc(-c5cccc6[nH]ccc56)nc4c3c2)CC1	1 to 10 µM
[O-][S+]1CCN(Cc2cnc3oc4c(N5CCOCC5)nc(-c5cc(F)cc6[nH]ccc56)nc4c3c2)CC1	> 10 µM
Cc1cc2c(-c3nc(N4CCOCC4)c4oc5ncc(CN6CC[S+]([O-])CC6)cc5c4n3)cccc2[nH]1	1 to 10 µM
N=S1(=O)CCN(Cc2cnc3oc4c(N5CCOCC5)nc(-c5cccc6[nH]ccc56)nc4c3c2)CC1	1 to 10 µM
Cc1ccc2c(c1-c1nc(N3CCOCC3)c3oc4ncc(CN5CC[S+]([O-])CC5)cc4c3n1)CCN2	> 10 µM
O=C1Cc2c(cccc2-c2nc(N3CCOCC3)c3oc4ncc(CN5CC[S+]([O-])CC5)cc4c3n2)N1	> 10 µM
O=C(O)c1ccc2[nH]ccc2c1-c1nc(N2CCOCC2)c2oc3ncc(CN4CC[S+]([O-])CC4)cc3c2n1	> 10 µM
